# key: entry, value: IC50
- testTarget: human BACE1 (Homo sapiens, UniProt P56817)
- Sequence (P56817 46-501): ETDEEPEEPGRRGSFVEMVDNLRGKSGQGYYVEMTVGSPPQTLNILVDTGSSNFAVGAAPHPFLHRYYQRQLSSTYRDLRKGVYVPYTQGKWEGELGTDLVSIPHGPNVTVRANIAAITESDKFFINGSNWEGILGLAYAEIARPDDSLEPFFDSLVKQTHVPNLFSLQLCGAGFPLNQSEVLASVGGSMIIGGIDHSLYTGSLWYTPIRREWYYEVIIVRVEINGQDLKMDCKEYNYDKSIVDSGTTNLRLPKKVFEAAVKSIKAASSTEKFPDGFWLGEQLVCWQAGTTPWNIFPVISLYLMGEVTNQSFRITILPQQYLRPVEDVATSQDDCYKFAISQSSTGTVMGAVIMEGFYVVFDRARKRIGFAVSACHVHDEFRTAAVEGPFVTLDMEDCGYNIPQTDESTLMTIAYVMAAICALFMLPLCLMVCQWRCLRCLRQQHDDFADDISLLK
- testSummary: Fluorescent kinetic assay, BACE-1 (Example 114)
- Format: biochemical
- statedConditions: 10 nM human BACE1, 25 μM substrate WABC-6, 50 mM Na-Acetate pH 4.5, room temperature; read-out: BACE-1 (IC50 μM)

Example molecules with recorded IC50:
CN1C(=O)C(c2cccnc2)(c2cccc(-c3ccccc3)c2)N=C1N (stereo not shown) [Example 27] = 0.11 to 1 µM
CN1C(=O)[C@](c2ccncc2)(c2ccc(F)c(-c3cccnc3F)c2)N=C1N [Example 113A] = > 1 µM
CN1C(=O)C(c2ccc(OC(F)F)cc2)(c2cccnc2)N=C1N (stereo not shown) [Example 111] = > 1 µM

q: Please look up its IC50: CCc1cc(C2(c3cccc(-c4cc(F)ccc4F)c3)N=C(N)N(C)C2=O)cc(C)n1 (stereo not shown) [Example 85]
a: 0.11 to 1 µM
